From: patent US20240190983A1

- target-or-system: T1, Human TNFR2 (human, UniProt P20333 23-461)
- T1 construct: On cells: HeLa-TNFR2, HT1080-Bcl2-TNFR2, transiently transfected HEK293; endogenous on Kym-1 cells; also called huTNFR2; TNFRSF1B
- T1 sequence: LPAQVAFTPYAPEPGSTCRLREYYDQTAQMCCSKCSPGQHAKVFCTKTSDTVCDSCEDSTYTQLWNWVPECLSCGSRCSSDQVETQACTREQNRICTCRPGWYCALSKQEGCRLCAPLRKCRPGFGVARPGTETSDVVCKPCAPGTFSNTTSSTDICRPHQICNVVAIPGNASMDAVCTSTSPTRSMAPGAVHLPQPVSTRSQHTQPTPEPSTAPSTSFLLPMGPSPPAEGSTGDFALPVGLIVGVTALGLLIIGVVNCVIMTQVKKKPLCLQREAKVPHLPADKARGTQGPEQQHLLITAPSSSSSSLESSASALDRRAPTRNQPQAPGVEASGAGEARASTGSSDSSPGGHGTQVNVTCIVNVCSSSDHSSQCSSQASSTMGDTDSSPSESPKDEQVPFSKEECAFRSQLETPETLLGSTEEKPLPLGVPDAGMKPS
- assay-info: binding of 3xVHH-Fc-GpL to HEK293 cells transiently transfected with TNFR2; empty-vector cells as unspecific binding
Listed below: Kd values for each entry.

The cases that follow already have their Kd on record.
>  <binder>
3×VHH:C74-Fc-GpL (Fc fusion, also called 3×VHH-Fc-GpL variant of C74; hexavalent format for C74; not shown: the listing has no entry for the 3xVHH-Fc-GpL format) VHH: DVQLVESGGGLVQSGGSLRLSCAASGFPFSSSDMTWVRQTSGSVFEWVSDINPDGQNTRYADSVKGRFIISRDNAKSTLYLQMDSLKTDDTAVYYCAADPGSSGGSLSYWGKGTLVTVSS

>  <Kd>
35 ng/mL

$$$$
>  <binder>
3xVHH:C188-Fc-GpL (Fc fusion, not shown: a dimerising Fc or GST; small tags and cut ends, also called hexavalent 3×VHH-Fc-GpL construct of C188) VHH: DVQLVESGGGSVQTGGSLTLSCAISGSTSERYCLGWFRQAPGREREGVAATSLTGRGAQFYADSVKGRFTISLDDAKNTLYLQMDSLRPDDTAVYYCAEDVGFLCGYDSDNDPFYDWGQGTQVTVSS

>  <Kd>
5 ng/mL

$$$$

Now look at this entry.
Prompt: Tell us which Kd value is on record for 3×VHH:C18-Fc-GpL (Fc fusion, also called 3×VHH-Fc-GpL variant of C18; hexavalent format of C18; not shown: the listing has no entry for the 3xVHH-Fc-GpL format) VHH: DVQLVESGGGSVQTGGSLTLSCAISGSTSERYCMGWFRQAPGREREGVAATSLTGRGAQFYADSVKGRFTISLDDAKNTLYLQMDSLRPDDTAVYYCAADVGFLCGYDSDNDPFYDWGQGTQVTVSS
Completion: 6 ng/mL
